# Measurement protocol: yeast display, Sf9 membrane polyspecificity reagent, FACS + sequencing; frameworks hold sequencing errors
Attribute measured: polyreactivity (PSR sort gate)

Examples with answers:
Sequence string	Attribute measured	Result
QVQLVESGGGLVQAGGSLRLSCAASGYYAMGWYRQAPGKERELVAAITWSGGTTYYADSVKGRFTISRDNAKNTVYLQMNSLKPEDTAVYYCNADFVRYTRHKKYYYWGQGTQVTVSS	polyreactivity (PSR sort gate)	low polyreactivity
QVQLVESGGGLVQAGGSLRLSCAASGSTFVGYAMGWYRQAPGKERELVAAISERGGRTYYADSVKGRFTISRDNAKNTVYLQMNSLKPEDTAVYYCAAYGRYPRLYTYYYWGQGTQVTVSS	polyreactivity (PSR sort gate)	high polyreactivity
QVQLVESGGGLVQAGGSLRLSCAASGSIFVYYAMGWYRQAPGKERELVAGISTSGGSTYYADSVKGRFTISRDNAKNTVYLQMNSLKPEDTAVYYCAAVDSFGYYKLYEYWGQGTQVTVSS	polyreactivity (PSR sort gate)	high polyreactivity
QVQLVESGGGLVQAGGSLRLSCAASGRTFVYNAMGWYRQAPGKEREMVSGITNGGSTNYADSVKGRFTISRDNAKNTVYLQMNSLKPEDTAVYYCAADSRVYPYYFGDFGYWGQGTQVTVSS	polyreactivity (PSR sort gate)	low polyreactivity
QVQLVESGGGLVQAGRSLRLSCAASGRIFKYNAMGWYRQAPGKERELVAVITSGGSTYYADSEKGRFTISRDNAMNTDSLQKNSLKQVDTAVYYCNSPYARYYTRYSAYDYWGQGTQVTVSS	polyreactivity (PSR sort gate)	low polyreactivity

Your task in this section: give polyreactivity (PSR sort gate) for each listed record.
1. QVHLVESGGGLVQAGGSLRLSCAASGIIFTWYAMGMYRQAPGKEREMVAAISGSGDITYYADSVKGRFTISRDNAKNTVYLQMNSLKPEDTAVYYCAADPWTYWEDYDYWGQGTQVTVSS
2. QVQLVESGGGLVQAGGSLRLSCAASGFIFRYYTMGWYRQAPGKERELVATITSGGSTYYADSVKGRFTISRDNAKNTVYLQMNSLKPEDTAVYYCAKVRDVLWRFNYWGQGTQVTVSS
3. QVHLVESGGGLVQAGGSLRLSCAASGRIFSVYAMGWYRQAPGKERELVAVITTSGGSTYYADSVKGRFTISRGNAKNTVYLQMNSLKPEDTAVYYCNAEPWSYAIGSYEYWGQGTQVTVSS
4. QVQLVESGGGLVQAGGSLRLSCAASGRIFVFNAMGWYRQAPGKERELVAAISRRGGSTYYADSVKGRFTISRDNAKNTVYLQMNSLKPEVTAVYYCAAVYPDYSSARYDYWGQGTQVTVSS
5. QVQLVESGGGLVQAGGSLRLSCAASGSTFTRYAMGWNRQAPGKARELVAAINWSGTSTYYADSVKGRFTISRDNAMNTVYLQMNSLKPEATAVYYSNAYTVRSYRFDYWGQGTQVTVSS

1: low polyreactivity; 2: high polyreactivity; 3: high polyreactivity; 4: high polyreactivity; 5: high polyreactivity

Give the value of polyreactivity (PSR sort gate) reported for the following: QDQHVESGGGLVQAGGSLRLSCAASGSTFHLYAMGWYRQAPGKERELVATITWRTGSTYYADSVKGRFTISRDNAKNTVYLQMNSLKPEDTAVYYCAAYPYRYSWLDYWGQGTQVTVSS
high polyreactivity
